Listing: viability, T/C of selected molecules
- Tested on: 349418-098-R-PDC complex spheroid growth;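 note: spheroids also contain HUVEC endothelial cells and human MSC stroma; spheroids exposed to agents for seven days before luminescence viability read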
- protocol_details: Anticancer human tumor 349418-098-R-PDC patient-derived lung adenocarcinoma cell line growth inhibition [AhR]
- run_parameters: second compound 1 µM; first compound 0.0316 µM; hits give low values
Give just the number in %; leave the unit off.

Example entries begin here.
[ask] For CC1COCCN1c1cc(-c2ccnn2C)c2ccnc(-c3ccn[nH]3)c2n1 (centres undefined) + CC(CO)NC(=O)c1cc(-c2ccc(Cl)cc2)nn(-c2cnn(C)c2)c1=O , write its viability, T/C.
[reply] 91.6

[ask] For CC(C)c1c(-c2ccccc2)nc2c(C#N)c[nH]n2c1=O + CC(CO)NC(=O)c1cc(-c2ccc(Cl)cc2)nn(-c2cnn(C)c2)c1=O , write its viability, T/C.
[reply] 91.3

[ask] For CC1(C)CCC(CN2CCN(c3ccc(C(=O)NS(=O)(=O)c4ccc(NCC5CCOCC5)c([N+](=O)[O-])c4)c(Oc4cnc5[nH]ccc5c4)c3)CC2)=C(c2ccc(Cl)cc2)C1 + CC(CO)NC(=O)c1cc(-c2ccc(Cl)cc2)nn(-c2cnn(C)c2)c1=O , write its viability, T/C.
[reply] 89.3

---
[ask] For COc1cc(C2c3cc4c(cc3C(OC3OC5COC(C)OC5C(O)C3O)C3COC(=O)C23)OCO4)cc(OC)c1O (centres undefined) + Cc1ccccc1N=Nc1ccc(NC(=O)c2ccnn2C)c(C)c1 , write its viability, T/C.
[reply] 90.4

[ask] For Nc1ccccc1NC(=O)c1ccc(CNC(=O)OCc2cccnc2)cc1 + Cc1cncc(-c2nc(NCCc3c[nH]c4ccccc34)c3ncn(C(C)C)c3n2)c1 , write its viability, T/C.
[reply] 72.6

[ask] For CC1COCCN1c1cc(C2(S(C)(=N)=O)CC2)nc(-c2ccnc3[nH]ccc23)n1 (centres undefined) + Cc1ccccc1N=Nc1ccc(NC(=O)c2ccnn2C)c(C)c1 , write its viability, T/C.
[reply] 89.2

[ask] For Cn1ncnc1C1c2n[nH]c(=O)c3cc(F)cc(c23)NC1c1ccc(F)cc1 (centres undefined) + Cc1ccccc1N=Nc1ccc(NC(=O)c2ccnn2C)c(C)c1 , write its viability, T/C.
[reply] 94.2

[ask] For COc1cc(Nc2ncc3c(n2)-c2ccc(Cl)cc2C(c2c(F)cccc2OC)=NC3)ccc1C(=O)O + Cc1ccccc1N=Nc1ccc(NC(=O)c2ccnn2C)c(C)c1 , write its viability, T/C.
[reply] 71.8

[ask] For O=C(C=Cc1cccc(S(=O)(=O)Nc2ccccc2)c1)NO + Cc1ccccc1N=Nc1ccc(NC(=O)c2ccnn2C)c(C)c1 , write its viability, T/C.
[reply] 109
